- experimentSummary: physchem
- conditionNotes: n-octanol/water
assayEndpoint: logP

Challenge: Assign logP to the following record: CC(C)CCCC(C)CCO (racemic)
Response given: 4.24

Challenge: Give the value of logP reported for the following: O=C1CCCCCCC/C=C/CCCCCCO1 [(10E)-oxacycloheptadec-10-en-2-one]
Response given: 6.15

Challenge: Return value of logP for input CCCC(O)CC[C@@H]1[C@@H](C)CCCC1(C)C (mixture of isomers) , no commentary.
Response given: 5.42

Challenge: Provide only the value of recorded logP for CCCCSCCCC [DIBUTYL SULFIDE]
Response given: 4.86

Challenge: Fill in reported logP for this entry: CC/C(=C\C[C@H]1CC=C(C)C1(C)C)CO
Response given: 4.44

Challenge: Retrieve logP measured for CCCCCC/C(C=O)=C\c1ccccc1 and print it.
Response given: 4.86

Challenge: Identify logP associated with the compound C/C=C/C(=O)C1=C(C)CCCC1(C)C
Response given: 3.63

Challenge: Return logP for the following compound: CC/C=C\CCOC(=O)c1ccccc1 [(3Z)-3-hexen-1-yl benzoate]
Response given: 4.21

Challenge: Identify the reported logP for the following entry. CCCCCC1CCCC1=O (racemic) [(+−)-2-pentylcyclopentanone]
Response given: 3.62

Challenge: Supply reported logP belonging to this compound: CCCCCCOC(=O)C(C)C [hexyl 2-methylpropanoate]
Response given: 4.31

Challenge: Determine from records and report logP for COC(=O)c1c(C)cc(O)c(C)c1O
Response given: 2.3

Challenge: State, in one line, measured logP of COC(=O)C=C1CCCC1 [methyl cyclopentylideneacetate]
Response given: 2.02

Challenge: For the compound CCOC(=O)C(C)C [ETHYL ISOBUTYRATE] , give its measured logP value.
Response given: 2.03

Challenge: Note down logP recorded for CC(=O)OCc1ccccc1 [benzyl acetate]
Response given: 2.04

Challenge: Give logP for CCCCCCC=O
Response given: 2.15

Challenge: Provide measured logP value, entry: CCCCCCCOC(C)=O [heptyl acetate]
Response given: 3.69

Challenge: Output logP of CCCCCCOC(=O)c1ccccc1O [HEXYL 2-HYDROXYBENZOATE]
Response given: 5.55

Challenge: Output measured logP for this item: CC(=O)CCC1=C(C)CCCC1(C)C
Response given: 3.99

Challenge: Please supply the value of reported logP for the item COc1cc(C=O)ccc1OC(=O)C(C)C
Response given: 1.9

Challenge: State its logP for this compound: CC(OC=O)C1CCCC(C)(C)C1 (stereo not shown)
Response given: 4.01

Challenge: Note logP for the compound shown: CCCCCCCC1CCCC(=O)O1 (racemic) [(+−)-6-heptyltetrahydro-2H-pyran-2-one]
Response given: 3.42

Challenge: Answer with reported logP of CC(=O)OC/C=C(/C)CCC=C(C)C
Response given: 3.81

Challenge: Fill in logP for record C=CC1(C)CCCC(C)(C)O1 (racemic)
Response given: 3.59

Challenge: Return logP (reported value) for this compound: CCCCCC=O
Response given: 2

Challenge: Supply measured logP of COc1cc(C=O)ccc1O [4-hydroxy-3-methoxybenzaldehyde] in your reply.
Response given: 0.72

Challenge: Determine its reported logP: CC(C=O)Cc1ccc(C(C)(C)C)cc1 (racemic)
Response given: 3.9

Challenge: Give the measured logP for CC(=O)OC(C)c1ccccc1 (racemic) [(+−)-1-PHENYLETHYL ACETATE]
Response given: 2.22

Challenge: Name the recorded logP of the compound listed here: C=CC(O)CCCCC (racemic) [(+−)-1-octen-3-ol]
Response given: 2.33

Challenge: Identify measured logP associated with O=C1CCC2(CCCCC2)O1 [1-oxaspiro[4.5]decan-2-one]
Response given: 1.66

Challenge: // fetch logP given entry CCCCCC1(C)CCC(C)(C)C1=O (racemic)
Response given: 4.63

Challenge: Quote logP reported for CC/C=C\CC/C=C/CO please.
Response given: 2.68

Challenge: Look up and state reported logP for CCCCC[C@H]1C(=O)CC[C@@H]1CC(=O)OC (racemic)
Response given: 2.92

Challenge: Return logP for the following compound: CCCCC/C=C\C=C\C(=O)OCC [ethyl (2E,4Z)-2,4-decadienoate]
Response given: 4.69

Challenge: For the compound CCCCCCCCCCCC#N , report logP.
Response given: 1.61

* * *

- experimentSummary: physchem
- conditionNotes: n-octanol/water
Field: logP. Provide a value for each of the molecules that follow.
# answer = number (no unit)

Challenge: Quickly give me recorded logP for CCCCCCCCCC(C)C=O (racemic) [(+−)-2-methylundecanal]
Response given: 5.01

Challenge: Please give the documented logP of CC(C)(O)CCC1CCCCC1
Response given: 3.93

Challenge: Recall and state the measured logP for C=C1CCCC(C)(C)C1C(=O)OC (racemic) .
Response given: 3.93

Challenge: For the molecule CC(C)=CCCC(C)C=O (racemic) , give its measured logP value.
Response given: 3.15

Challenge: Give the value of logP reported for the following: CCCCCCCCOC(C)=O [octyl acetate]
Response given: 4.29

Challenge: Using the record for CCCCCCCCC=O , state its measured logP.
Response given: 3.42

* * *

- experimentSummary: Volatility of perfuming compounds in air
- Assay type: physicochemical
- conditionNotes: Table 10, perfuming compounds having a woody note
assayEndpoint: Volatility (μg/l air)
Express the result in μg/l air but write the number alone.

Challenge: Could you please provide reported Volatility (μg/l air) for CC1(C)CCC[C@@]2(C)[C@H]1CC[C@@]1(C)OCC[C@@H]21 ? Thanks!
Response given: 9.23

Challenge: Specify reported Volatility (μg/l air) for the compound shown: CC1CCC2C(C)(C)C3CC12CCC3(C)O (racemic)
Response given: 11.83

Challenge: In one line, give reported Volatility (μg/l air) of the entry C/C=C/C(=O)C1=C(C)C=CCC1(C)C .
Response given: 91.38

Challenge: // fetch Volatility (μg/l air) given entry CC1(CO)CC1CC1CC2CC2(C)C1(C)C (stereo not drawn)
Response given: 1.74

Challenge: Using known records, supply Volatility (μg/l air) for CCCC(O)CC[C@@H]1[C@@H](C)CCCC1(C)C (mixture of isomers)
Response given: 2.34

Challenge: Report Volatility (μg/l air), nothing else, for this compound: CC(=O)O[C@@H]1CC[C@@H]2C(C)(C)CCC[C@@]2(C)C1 (racemic)
Response given: 14.41

Challenge: Query Volatility (μg/l air) for CCCC(O)CCC1C(C)CCC(C)C1(C)C (racemic)
Response given: 3.42

Challenge: Give reported Volatility (μg/l air) value for CCC(=CCC1CC=C(C)C1(C)C)CO (racemic)
Response given: 3.69

Challenge: Look up Volatility (μg/l air) of CC1(C)C2C[C@H]3CCC(=O)C=C3[C@@H]1C2 and report it.
Response given: 4.86

Challenge: # return recorded Volatility (μg/l air) for input O=C/C=C/c1ccccc1 [(E)-3-PHENYL-2-PROPENAL]
Response given: 70.14

Challenge: Tell me its Volatility (μg/l air) given CCC(C)C1(C)COC(C2CCC(C)=CC2C)OC1 (stereo not drawn) as the entry.
Response given: 3.82

Challenge: Supply reported Volatility (μg/l air) belonging to this compound: COC1(C)CCC23CC1C(C)(C)C2CCC3C (racemic) [(+−)-8-methoxycedrane]
Response given: 42.22

* * *

- experimentSummary: Volatility of perfuming compounds in air
- Type: physicochemical
- conditionNotes: Table 10, perfuming compounds having a woody note
assayEndpoint: Volatility (μg/l air)
Please state the figure in μg/l air; there is no need to write the unit.

Challenge: Provide only the value of recorded Volatility (μg/l air) for CC1CCC2(O1)C(C)(C)CCCC2(C)O (racemic)
Response given: 84.04

Challenge: Give Volatility (μg/l air) for the following compound: CC(=O)C=CC1C(C)CCC(C)C1(C)C (racemic)
Response given: 20.50

Challenge: Return Volatility (μg/l air) (reported value) for this compound: CCC(=O)O[C@H]1C[C@@H]2CC[C@@]1(C)C2(C)C
Response given: 216.42

Challenge: Please report Volatility (μg/l air) for the following compound: CC1=CCC(/C=C/C(C)C(C)O)C1(C)C (stereo not shown)
Response given: 20.41

Challenge: Report measured Volatility (μg/l air); entry is CC(=O)/C(C)=C(/C)C(C)C(C)(C)C (racemic)
Response given: 659.22

Challenge: Read the entry CC(=O)CCC1=C(C)CCCC1(C)C and write its reported Volatility (μg/l air).
Response given: 63.61

Challenge: Tell me Volatility (μg/l air) reported for CC(=O)O[C@@H]1CC2CC[C@]1(C)C2(C)C
Response given: 735.37

* * *

- experimentSummary: Volatility of perfuming compounds in air
- Format: physicochemical
- conditionNotes: Table 4, watery note
assayEndpoint: Volatility (μg/l air)
Response body: numeric value in μg/l air, unit text excluded.

Challenge: Recall and state the measured Volatility for CC(CC=O)CCCC(C)(C)O (racemic) [(+−)-7-hydroxy-3,7-dimethyloctanal] .
Response given: 12.81

Challenge: Identify measured Volatility associated with CCCCCCCCCCCC=O
Response given: 144.79

Challenge: Identify measured Volatility corresponding to CCCCCC#CC(=O)OC [METHYL 2-OCTYNOATE″, METHYL 2-OCTYNOATE]
Response given: 472.01

Challenge: Answer with the recorded Volatility for the compound listed here: CC(C=O)Cc1ccc(C(C)C)cc1 (racemic)
Response given: 24.85

Challenge: Look up and state reported Volatility for COc1ccc(CC(C)C=O)cc1 (racemic)
Response given: 18.99

Challenge: Annotate the compound Cc1ccc2c(c1)CC(C)(CO)C2 (racemic) with its measured Volatility.
Response given: 4.86

Challenge: Hello, please tell me recorded Volatility for this one: CC(C)c1cccc(C(C)CC=O)c1 (racemic) [(+−)-3-(3-ISOPROPYL-1-PHENYL)BUTANAL]
Response given: 14.74

Challenge: Annotate the compound CC/C=C\CC/C=C/C=O with its measured Volatility.
Response given: 632.43

Challenge: Retrieve Volatility measured for CC1=CC2CC(C=O)C1CC2C(C)C (stereo not drawn) and print it.
Response given: 131.02

Challenge: Return Volatility for the following compound: CCCCCCCCCCC=O
Response given: 178.29

Challenge: Answer with the recorded Volatility of CC(C)=CCCC1=CCC(C)(C=O)CC1 (racemic) only.
Response given: 26.54

Challenge: Read the entry CCCCCCCCCCCC#N and write its reported Volatility.
Response given: 56.74
